These data points were gathered from patent US7297714B2.

pKi: −log10 of the molar value.
UniProt:Q14790 measurements of pKi, listed per entry.
Sequence (Q14790 217-374 limits assumed, species assumed): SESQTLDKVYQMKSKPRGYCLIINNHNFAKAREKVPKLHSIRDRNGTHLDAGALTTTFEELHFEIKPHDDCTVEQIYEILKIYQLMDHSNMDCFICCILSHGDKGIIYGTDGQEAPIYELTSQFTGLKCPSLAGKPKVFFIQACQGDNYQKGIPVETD
Sequence (Q14790 385-479 limits assumed, species assumed): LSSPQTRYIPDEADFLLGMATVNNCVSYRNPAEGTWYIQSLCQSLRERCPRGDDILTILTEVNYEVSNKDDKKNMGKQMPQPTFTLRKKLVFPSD

Study these solved cases before continuing.
Qu. Any idea what its pKi is? The molecule is O=C1C[C@H](NC(=O)[C@H](CC2CCCC2)NC(=O)N2CCOCC2)C(O)O1 (stereo partly drawn)
Ans. < 5.00

Qu. Then this molecule: O=C1C[C@H](NC(=O)[C@H](CC2CCCCC2)OC(=O)N2CCOCC2)C(O)O1 (stereo partly drawn)
Ans. < 5.00

Qu. Lookup O=C1C[C@H](NC(=O)[C@H](CC2CCCC2)NC(=O)c2ccc(-c3cccc(F)c3)o2)C(O)O1 (stereo partly drawn)
Ans. < 6.00

Qu. Another molecule: O=C1C[C@H](NC(=O)O[C@@H](CC2CCCC2)Cn2cnc3cc(Cl)c(Cl)cc32)C(O)O1 (stereo partly drawn)
Ans. < 5.00

Qu. What do you have for O=C1C[C@H](NC(=O)[C@H](CC2CCCCC2)NS(=O)(=O)c2cccc(OC(F)(F)F)c2)C(O)O1 (stereo partly drawn) ?
Ans. < 5.00

# context switch: different molecule, same pKi
Qu. For the molecule CC(C)(C)C[C@H](OC(=O)N[C@H]1CC(=O)OC1O)C(=O)N1CCOCC1 (stereo partly drawn) , what pKi is on record?
Ans. < 4.00

###

Ki values, listed per item
assayTarget: Caspase 1 (Homo sapiens)
Sequence (P29466 120-297 limits assumed): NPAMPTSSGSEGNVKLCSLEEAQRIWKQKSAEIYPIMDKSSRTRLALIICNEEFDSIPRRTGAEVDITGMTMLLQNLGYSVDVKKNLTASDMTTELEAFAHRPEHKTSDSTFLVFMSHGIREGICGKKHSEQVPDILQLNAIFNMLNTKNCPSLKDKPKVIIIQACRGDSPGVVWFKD
Sequence (P29466 317-404 limits assumed): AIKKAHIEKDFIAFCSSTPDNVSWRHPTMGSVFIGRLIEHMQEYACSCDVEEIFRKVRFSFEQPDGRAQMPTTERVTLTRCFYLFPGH

Here are 5 compounds together with their reported answers.
Qu. What value of Ki has been recorded for this entry: O=C1C[C@H](NC(=O)[C@H](CC2CCCCC2)OC(=O)N2CCOCC2)C(O)O1 (some centres unmarked)
Ans. > 10 µM

Qu. Also O=C1C[C@H](NC(=O)[C@H](CC2CCCC2)NS(=O)(=O)c2cccc(OC(F)(F)F)c2)C(O)O1 (some centres unmarked) , if possible.
Ans. > 100 µM

Qu. Check CC(C)(C)C[C@H](OC(=O)N[C@H]1CC(=O)OC1O)C(=O)N1CCOCC1 (some centres unmarked) too.
Ans. > 100 µM

Qu. And O=C1C[C@H](NC(=O)[C@H](CC2CCCCC2)NS(=O)(=O)c2cccc(OC(F)(F)F)c2)C(O)O1 (some centres unmarked) ?
Ans. > 10 µM

Qu. Same lookup for O=C1C[C@H](NC(=O)O[C@@H](CC2CCCCC2)C(=O)N2CCOCC2)C(O)O1 (some centres unmarked) , please.
Ans. > 100 µM

Further cases:
Qu. For the compound O=C1C[C@H](NC(=O)O[C@@H](CC2CCCC2)Cn2cnc3cc(Cl)c(Cl)cc32)C(O)O1 (some centres unmarked) , what Ki is on record?
Ans. > 10 µM

Qu. Check O=C1C[C@H](NC(=O)[C@@H](CC(=O)N2CCOCC2)CC2CCCCC2)C(O)O1 (some centres unmarked) too.
Ans. > 100 µM

Qu. // next record O=C1C[C@H](NC(=O)[C@H](CC2CCCC2)NC(=O)N2CCOCC2)C(O)O1 (some centres unmarked)
Ans. > 100 µM
